System: UniProt P08185
Sequence (P08185 23-405): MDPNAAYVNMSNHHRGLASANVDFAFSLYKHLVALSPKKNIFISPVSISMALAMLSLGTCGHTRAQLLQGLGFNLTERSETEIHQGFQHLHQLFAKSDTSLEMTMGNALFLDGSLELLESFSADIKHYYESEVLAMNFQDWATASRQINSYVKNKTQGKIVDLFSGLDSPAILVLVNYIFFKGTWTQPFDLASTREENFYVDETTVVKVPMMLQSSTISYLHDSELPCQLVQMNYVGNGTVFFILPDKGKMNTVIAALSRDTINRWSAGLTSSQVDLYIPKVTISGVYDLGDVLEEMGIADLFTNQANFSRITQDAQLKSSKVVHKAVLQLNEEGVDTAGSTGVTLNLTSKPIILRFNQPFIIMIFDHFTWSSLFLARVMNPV
Assay Text: Plasma protein binding assay, competition with [3H]cortisol in human pregnant serum
Condition Parameters: data not shown, read-out: IC50, prevention of [3H]cortisol binding
Readout Name: pIC50
Answers are plain numbers, as −log10 of the molar value.

Compound	System	Readout Name	Endpoint Value
C[C@]12CCC(=O)C=C1CC[C@@H]1[C@@H]2[C@@H](O)C[C@@]2(C)[C@H]1CC[C@]2(O)C(=O)CO [cortisol, reference compound]	UniProt P08185	pIC50	8.17
CC(=O)[C@H]1CC[C@H]2[C@@H]3CCC4=CC(=O)CC[C@]4(C)[C@H]3CC[C@]12C [progesterone, reference compound]	UniProt P08185	pIC50	7.14

response.value for CC(=O)[C@H]1CC[C@H]2[C@@H]3CCC4=CC(=O)CC[C@]4(C)[C@H]3[C@H](OC(=O)CCC(=O)NCCCC[C@@H](NC(=O)[C@H](Cc3ccc(O)cc3)NC(=O)[C@H](CO)NC(=O)[C@H](Cc3c[nH]c4ccccc34)NC(=O)[C@H](Cc3c[nH]cn3)NC(=O)[C@@H]3CCC(=O)N3)C(=O)N[C@@H](CC(C)C)C(=O)N[C@@H](CCCNC(=N)N)C(=O)N3CCC[C@H]3C(=O)NCC(N)=O)C[C@]12C [GnRH agonist-progesterone conjugate] (field: pIC50) = 5.92
